Attribution: PubChem BioAssay (NCATS)

- Study target: Cytochrome P450 2D6 (Homo sapiens)
- Experimental details: Cytochrome P450 family 2 subfamily D member 6 (CYP2D6) small molecule antagonists: luciferase biochemical (cell-free) qHTS assay (AID 1645840); further: nearly all actives have a fitted effect of over 55% in size
- Settings: P450-Glo CYP2D6 enzyme, luciferin luminescence, 1 h; series mostly up to 57.4 µM
Results filed as inconclusive are left out. Activity calls are given as the source filed them. The call rests on the fitted dose curve; in most records, active means well fitted inhibition curve with a large enough effect in the repeat runs; inconclusive means weak or mixed curves; inactive means flat fitted curve, though single readings scatter.
Possible outcomes: active, inactive

CCOC(=O)[C@@](C)(N)Cc1ccc(O)c(O)c1 ... active
CC[N+](C)(CC)CCOC(=O)C(O)(c1ccccc1)C1CCCCC1 (stereo not drawn) ... active
COc1ccc(/C=N/NC(=O)c2ccncc2)cc1OC ... active
COc1cc(C(=O)N2CCCCCCC2)cc(OC)c1OC ... inactive
C=CCN1CCc2nc(N)sc2CC1 ... inactive
O=C(O)Cc1csc(-c2ccc(Cl)cc2)n1 ... inactive
CC(=O)N[C@@H](CCC(=O)O)C(=O)O ... inactive
Cc1cc(CC(=O)O)c(C)n1-c1ccc(Cl)cc1 ... inactive
O=[N+]([O-])c1ccc(/C=N\O)o1 ... active
N#CCC(=O)NN ... inactive
O=C(CCCN1CC=C(n2c(=O)[nH]c3ccccc32)CC1)c1ccc(F)cc1 ... active
CCCCC(CC)CN1CN(CC(CC)CCCC)CC(C)(N)C1 (stereo not drawn) ... active
O=C(O)c1ccc(S(=O)(=O)N(Cl)Cl)cc1 ... inactive
COc1ccc(C(=O)c2ccccc2)c(O)c1 ... inactive
Cc1cc(NS(=O)(=O)c2ccc(N)cc2)nc(C)n1 ... inactive
CC(C)Cc1ccc(CC(=O)O)cc1 ... inactive
C=C[C@@]1(C)CC(=O)[C@]2(O)[C@@]3(C)[C@@H](O)CCC(C)(C)[C@@H]3[C@H](O)[C@H](OC(C)=O)[C@@]2(C)O1 ... inactive
CC(=O)OCC1=C(C(=O)O)N2C(=O)[C@@H](NC(=O)CSc3ccncc3)[C@H]2SC1 ... active
COC(=O)C(c1ccccc1Cl)N1CCc2sccc2C1 (stereo not drawn) ... active
CO[C@H]1C=CO[C@@]2(C)Oc3c(C)c(O)c4c(O)c(c(/C=N/N5CCN(C)CC5)c(O)c4c3C2=O)NC(=O)/C(C)=C\C=C[C@H](C)[C@H](O)[C@@H](C)[C@@H](O)[C@@H](C)[C@H](OC(C)=O)[C@@H]1C ... inactive
C/C=C/c1ccc(O)c(OC)c1 ... inactive
NC1CCN(c2nc3c(cc2F)c(=O)c(C(=O)O)cn3-c2ccc(F)cc2F)C1 (stereo not drawn) ... inactive
O=C(O)C(Cc1cc(I)c(O)c(I)c1)c1ccccc1 (stereo not drawn) ... inactive

###

Each record here notes measured activity, negative = cell killing.
- Experimental details: Drug repurposing screens with cells derived from glioblastoma tumor samples (AID 1345199); further: on the % scale 0 is the no-effect control and ±100 the full control effect; nearly all actives have a fitted effect of over 40% in size
- Settings: GBM patient neurospheres viability, ATP luminescence, 48 h; at 45.9 µM (top of the series); tumour line B
Records with an inconclusive call do not appear. The source made the active and inactive calls. Calls come from the whole dose curve; as a rule, active = well fitted inhibition curve with a large enough effect; inconclusive = small, poorly fitted or top-dose-only effect; inactive = flat fitted curve, though single readings scatter.
Quantity measured: activity, negative = cell killing

CCN(CC)CCNC(=O)COc1ccc(OC)cc1 ... -17.2% (inactive)
CCCCCCCCCCCCCCCC(=O)O ... -2.37% (inactive)
NC(=O)n1c(O)c(C(=O)c2cccs2)c2cc(Cl)ccc21 ... -6.38% (inactive)
CCc1ccc(C(=O)C(C)CN2CCCCC2)cc1 (stereo not given) ... -6.35% (inactive)
COC(=O)C(c1ccccc1Cl)N1CCc2sccc2C1 (stereo not given) ... -13.2% (inactive)
CC(C)NCC(O)c1ccc2ccccc2c1 (stereo not given) ... -12.4% (inactive)
NC(=O)c1ccccc1O ... -6.32% (inactive)
NCCNc1cccc2ccccc12 ... -17.3% (inactive)
OC[C@H]1O[C@@H](Oc2ccc(O)cc2)[C@H](O)[C@@H](O)[C@@H]1O ... 0.949% (inactive)
O=C(c1ccc(F)cc1)C1CCN(CCn2c(=S)[nH]c3ccccc3c2=O)CC1 ... -29.1% (inactive)
Cc1ccc(S(=O)(=O)NC(=O)NC2CCCC2)cc1 ... -10.4% (inactive)
O=C(CCCN1CC=C(n2c(=O)[nH]c3ccccc32)CC1)c1ccc(F)cc1 ... -17.1% (inactive)
NC1CCN(c2nc3c(cc2F)c(=O)c(C(=O)O)cn3-c2ccc(F)cc2F)C1 (stereo not given) ... -3.86% (inactive)
COP(=O)(OC)OC(c1ccc(Cl)cc1)P(=O)(OC)OC (stereo not given) ... -15.7% (inactive)
CCNC(=O)/C=C/c1cccc(Br)c1 ... -10.7% (inactive)
COc1ccc(C(=O)c2ccccc2)c(O)c1 ... 1.18% (inactive)
COc1cc(C(=O)N2CCCCCCC2)cc(OC)c1OC ... -16.1% (inactive)
C[C@H]1[C@H]2CC[C@H]3[C@@H]4CC=C5C[C@@H](N(C)C)CC[C@]5(C)[C@H]4CC[C@]23CN1C ... 0.435% (inactive)
CC(C)=CCOc1ccc(/C=C/C(=O)c2ccc(OCC=C(C)C)cc2OCC(=O)O)cc1 ... 16% (inactive)
Cc1ccccc1OCC(O)CO (stereo not given) ... -8.02% (inactive)
Cc1c[nH]c2ccccc12 ... -3.32% (inactive)
CCOCCn1c(N2CCCN(C)CC2)nc2ccccc21 ... -14.8% (inactive)
O=S(c1cc(Cl)cc(Cl)c1O)c1cc(Cl)cc(Cl)c1O ... -23.8% (inactive)
NCc1ccccc1Sc1ccccc1CO ... -12.4% (inactive)
CC(=O)O[C@]1(C(C)=O)CC[C@H]2[C@@H]3C=C(Cl)C4=CC(=O)CC[C@]4(C)[C@H]3CC[C@@]21C ... -21.1% (inactive)

###

- Tested on: MKL-2
- Experimental details: qHTS assay to identify novel small-molecules to repurpose for Merkel cell carcinoma treatment (AID 1296009); further: nearly all actives have a fitted effect of over 60% in size
- Settings: MCC and control cell lines, CellTiter-Glo viability, 72 h; series mostly up to 46 µM
- Description: MCC is a rare and aggressive neuroendocrine skin cancer with limited treatment options. Approximately 80% of MCCs have the Merkel cell polyomavirus (MCPyV) DNA integrated into the host genome (virus-positive: VP-MCC) and viral oncogenes drive oncogenesis. The remaining MCCs are virus-negative (VN-MCC) and are caused by UV mutagenesis. […] Using cell viability as a readout (CellTiter-Glo assay) we found both overlapping and distinct drugs that can be repurposed for the treatment of VP-MCC and VN-MCC. […]
Results filed as inconclusive are left out. Activity calls are given as the source filed them. The call rests on the fitted dose curve; in most records, active means well fitted inhibition curve with a large enough effect; inconclusive means small, poorly fitted or top-dose-only effect; inactive means flat fitted curve, though single readings scatter.
Possible outcomes: 1 = active, -1 = inactive

OC1C(O)C(O)C(O)C(O)C1O (configuration not stated) ... -1
COc1ccc(C(Cl)=C(c2ccc(OC)cc2)c2ccc(OC)cc2)cc1 ... -1
CCN1CCCC(OC(=O)C(c2ccccc2)c2ccccc2)C1 (configuration not stated) ... -1
CCN(CC)CCOC(=O)C1(c2ccccc2)CCCC1 ... -1
CN1CCc2cccc3c2[C@H]1Cc1ccc(O)c(O)c1-3 ... 1
Cc1ccc2c(Br)cc(Br)c(O)c2n1 ... 1
O=C1C(O)=C(O)C(=O)C(O)=C1O ... -1
N#C/C(=C1\SCC(c2ccccc2Cl)S1)n1ccnc1 (configuration not stated) ... -1
Cc1cc2c(OCC(CNC(C)(C)C)OC(=O)c3ccccc3)cccc2[nH]1 (configuration not stated) ... -1
COC(=O)C(c1ccccc1Cl)N1CCc2sccc2C1 (configuration not stated) ... -1
COc1cc(C)nc(-n2nc(C)cc2OC)n1 ... -1
O[C@@H](c1cc(C(F)(F)F)nc2c(C(F)(F)F)cccc12)[C@H]1CCCCN1 ... 1

###

- System: CP297
- Experimental details: qHTS profiling for inhibitors of Plasmodium falciparum proliferation (AID 504749); further: nearly all actives have a fitted effect of over 60% in size
- Settings: P. falciparum in erythrocytes, SYBR Green DNA, 72 h; series mostly up to 28.7 µM
Records with an inconclusive call do not appear. Calls of active or inactive are those of the source. The call rests on the fitted dose curve; in most records, active means well fitted inhibition curve with a large enough effect; inconclusive means small, poorly fitted or top-dose-only effect; inactive means flat fitted curve, though single readings scatter.
Possible outcomes: true (active), false (inactive)

CCCCCCCCCCCCSCCOCCO ... false
COc1cc(C)nc(-n2nc(C)cc2OC)n1 ... false
CC(=O)OC[C@H]1O[C@@H](n2ncc(=O)[nH]c2=O)[C@H](OC(C)=O)[C@@H]1OC(C)=O ... false
O=C(Nc1cccc(C2=NCCN2)c1)Nc1cccc(C2=NCCN2)c1 ... true
O=C(O)c1ccc(S(=O)(=O)N(Cl)Cl)cc1 ... false
CCCCCCCCCCCCCCCC(=O)O ... false

###

Each record here notes measured activity, negative = inhibition.
- Experimental details: qHTS profiling for inhibitors of Plasmodium falciparum proliferation (AID 504749); further: nearly all actives have a fitted effect of over 60% in size;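 on activity, negative = inhibition: 0% = DMSO vehicle and full inhibition = artemisinin control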
- Settings: P. falciparum in erythrocytes, SYBR Green DNA, 72 h; at 28.7 µM (top of the series); parasite line B
- Protocol: NIH National Institute of Allergy and Infectious Diseases [NIAID] NIH Chemical Genomics Center [NCGC] […] Because mature erythrocytes lack DNA, only Plasmodium-derived DNA is detected. NCGC Assay Protocol Summary: The SYBR Green viability assay was adapted from a method described previously (Plouffe et al., 2008). […] The following morning, fluorescence intensity at 485(14) nm excitation and 535(25) nm emission wavelengths was measured on an EnVision (Perkin Elmer) plate reader. […]
Inconclusive results are not listed.
Quantity measured: activity, negative = inhibition (%)

CCOc1ccccc1OCCN[C@H](C)Cc1ccc(OC)c(S(N)(=O)=O)c1 ... 1.02
CCc1ccc(C(=O)C(C)CN2CCCCC2)cc1 (stereo not drawn) ... 6.09
NC(=S)N/N=C/c1cccnc1 ... 8.73
CN(C)CCC[C@@]1(c2ccc(F)cc2)OCc2cc(C#N)ccc21 ... 6.35
CCCCN=C(N)N=C(N)N ... 0.415
Cc1cccc(C)c1NC(=O)c1ccccc1C(=O)O ... 8.59
O=C(Nc1ncc([N+](=O)[O-])s1)c1cccs1 ... -2.66
COc1ccccc1N1CCN(CCCCNC(=O)c2ccc(-c3ccc(C(C)=O)cc3)cc2)CC1 ... 20.5
CCCCCCCCCCCCCCCCO ... 8.58
N=C(N)N1CCc2ccccc2C1 ... 0.433
COc1ccc(C(=O)c2ccccc2)c(O)c1 ... 10.2
CNCCCCOc1ccccc1Cc1ccccc1 ... -10.9
CN1CCN(c2c(F)cc3c(=O)c(C(=O)O)cn4c3c2SCC4)CC1 ... -29
